Assign AC50 to each entry below.
Target: Androgen receptor (Rattus norvegicus, UniProt P15207); also: assay procedure not described here
Sequence (P15207 whole entry S389L): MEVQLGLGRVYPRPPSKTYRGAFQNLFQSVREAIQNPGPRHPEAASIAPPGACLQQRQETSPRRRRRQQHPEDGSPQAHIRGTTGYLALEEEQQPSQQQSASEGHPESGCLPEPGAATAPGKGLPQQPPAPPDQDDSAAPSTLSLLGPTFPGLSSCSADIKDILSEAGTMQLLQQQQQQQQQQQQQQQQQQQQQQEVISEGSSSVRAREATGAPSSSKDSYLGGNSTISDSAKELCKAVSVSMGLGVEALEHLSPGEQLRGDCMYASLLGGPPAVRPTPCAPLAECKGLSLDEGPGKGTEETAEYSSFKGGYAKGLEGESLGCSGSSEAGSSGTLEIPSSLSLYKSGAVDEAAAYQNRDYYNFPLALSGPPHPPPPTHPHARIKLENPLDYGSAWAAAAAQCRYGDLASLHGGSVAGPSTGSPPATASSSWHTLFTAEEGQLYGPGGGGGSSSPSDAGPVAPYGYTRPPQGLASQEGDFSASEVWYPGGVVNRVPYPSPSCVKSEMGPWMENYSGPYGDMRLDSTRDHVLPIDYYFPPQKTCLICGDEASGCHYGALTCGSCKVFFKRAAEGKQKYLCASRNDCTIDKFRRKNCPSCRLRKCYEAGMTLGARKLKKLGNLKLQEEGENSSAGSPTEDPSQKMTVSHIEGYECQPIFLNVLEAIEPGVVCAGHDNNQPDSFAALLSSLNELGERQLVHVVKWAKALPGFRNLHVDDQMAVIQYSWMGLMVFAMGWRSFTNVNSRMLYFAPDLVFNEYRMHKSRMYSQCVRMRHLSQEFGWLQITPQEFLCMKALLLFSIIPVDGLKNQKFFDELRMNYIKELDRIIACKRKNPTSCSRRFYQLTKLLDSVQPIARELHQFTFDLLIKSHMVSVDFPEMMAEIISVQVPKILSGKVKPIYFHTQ
Assay type: functional

Completed entries (count: 2):
Memo: CC(C)N(CCCCOCC(=O)NS(C)(=O)=O)c1cnc(-c2ccccc2)c(-c2ccccc2)n1 [SELEXIPAG] , reported AC50: 17 µM

Memo: CCN(CC)CC(=O)Oc1ccc(NC(C)=O)cc1 [PROPACETAMOL] , reported AC50: > 30 µM

For each of the compounds below, note its AC50.
1. CCCCCCOC(=O)CCC(=O)CN [HEXAMINOLEVULINATE]
2. O=C(O)CSCC(=O)NC1CCSC1=O (stereo not given) [ERDOSTEINE]
3. CNCC[C@@H](Oc1ccccc1C)c1ccccc1 [ATOMOXETINE]

Reply:
["> 30 µM", "> 30 µM", "> 30 µM"]

Cited source: ChEMBL document CHEMBL5291721
